Biological target: Proteasome subunit beta (Trypanosoma cruzi) (UniProt O96673)
Sequence (O96673 as listed by the source): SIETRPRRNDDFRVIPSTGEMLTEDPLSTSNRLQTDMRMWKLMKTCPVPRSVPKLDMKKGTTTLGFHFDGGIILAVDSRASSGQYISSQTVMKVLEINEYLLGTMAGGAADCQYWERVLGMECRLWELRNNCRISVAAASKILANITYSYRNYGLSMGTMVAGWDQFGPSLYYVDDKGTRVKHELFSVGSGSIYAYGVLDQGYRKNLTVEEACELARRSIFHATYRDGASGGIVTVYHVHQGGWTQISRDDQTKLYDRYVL
Assay: Trypanosoma cruzi proteasome chymotrypsin-like activity (TcProtChymo) assay.
Format: functional
Set-up: scale not given: in the data most compounds retested in dose-response had high values
Conditions: 9.37 µM
Percent Effect overview

# compound, assayed system, Percent Effect
measured = [
    ("CCC(NC(=O)CC(F)(F)F)c1ccccc1OCC(=O)N1CCCC1 (configuration not stated)", "Proteasome subunit beta (Trypanosoma cruzi) (UniProt O96673)", "13.4%"),
    ("CCOCC(=O)N1C[C@@H](O)[C@H](N(C)Cc2ccc(OC)cc2)C1", "Proteasome subunit beta (Trypanosoma cruzi) (UniProt O96673)", "9.05%"),
    ("Cc1nc(CN2CCCC(NCc3ccsc3)C2)no1 (configuration not stated)", "Proteasome subunit beta (Trypanosoma cruzi) (UniProt O96673)", "16.1%"),
    ("Fc1cccc(-c2nc(CN3CCCCC3Cn3cncn3)co2)c1 (configuration not stated)", "Proteasome subunit beta (Trypanosoma cruzi) (UniProt O96673)", "1.72%"),
    ("Cc1cc2c(=O)n3c(nc2s1)CCN(Cc1ccncc1)CC3", "Proteasome subunit beta (Trypanosoma cruzi) (UniProt O96673)", "4.21%"),
    ("Cc1ccc(CN2CCCn3c(nc(Cn4cncn4)cc3=O)C2)s1", "Proteasome subunit beta (Trypanosoma cruzi) (UniProt O96673)", "7.5%"),
    ("Cc1nn(C)c(C)c1C1CCCN1Cc1nc(C2CC2)no1 (configuration not stated)", "Proteasome subunit beta (Trypanosoma cruzi) (UniProt O96673)", "15.6%"),
    ("COc1cccc(OCC2CCCN(C3CCN(C(C)=O)CC3)C2)c1 (configuration not stated)", "Proteasome subunit beta (Trypanosoma cruzi) (UniProt O96673)", "18.4%"),
    ("O=C(NCc1ccccc1-n1cccn1)N1CCN2CCCCC2C1 (configuration not stated)", "Proteasome subunit beta (Trypanosoma cruzi) (UniProt O96673)", "1.78%"),
    ("Cc1nccn1CC1CCCN1S(=O)(=O)Cc1ccccc1F (configuration not stated)", "Proteasome subunit beta (Trypanosoma cruzi) (UniProt O96673)", "2.05%"),
    ("CC(C)c1nc(CN2CCN(CC3CCCO3)CC2)cs1 (configuration not stated)", "Proteasome subunit beta (Trypanosoma cruzi) (UniProt O96673)", "14.8%"),
    ("Cc1cccc(-c2ccc(C(=O)NCCN(C)C3CC3)c(=O)[nH]2)c1", "Proteasome subunit beta (Trypanosoma cruzi) (UniProt O96673)", "-0.721%"),
]
